Known viability at 12.5 μM of a selection of compounds
- protocol-details: Dark cytotoxicity, MTT assay, MIA-PaCa-2
- Format: cell-based
- applied-conditions: human, MIA-PaCa-2 cells; 12.5 μM photosensitizer, 3 h, no light, 72 h incubation; read-out: Cell viability, Dark cytotoxicity against MIA-PaCa-2

{"compound": "C=Cc1c(C)c2cc3nc(c(CC(=O)O)c4[nH]c(cc5nc(cc1[nH]2)C(C)=C5CC)c(C)c4C(=O)O)[C@@H](CCC(=O)O)[C@@H]3C [Compound 3, Chlorin e6]", "unit-abbreviation": "%", "viability at 12.5 μM": 100}
{"compound": "C=Cc1c(C)c2cc3nc(c(CC(=O)OC)c4[nH]c(cc5nc(cc1[nH]2)C(C)=C5CC)c(C)c4C(=O)NCCCOCCOCCOCCCNC(=O)CCCC(=O)Oc1ccc(/C=C/C(=O)CC(=O)/C=C/c2ccc(O)c(OC)c2)cc1OC)[C@@H](CCC(=O)OC)[C@@H]3C [Compound 16, Chlorine e6-curcumin Conjugate (16)]", "unit-abbreviation": "%", "viability at 12.5 μM": 113}
{"compound": "C=Cc1c(C)c2cc3nc(c(CC(=O)OC)c4[nH]c(cc5nc(cc1[nH]2)C(C)=C5CC)c(C)c4C(=O)NCCOCCOCCNC(=O)CCCC(=O)Oc1ccc(/C=C/C(=O)CC(=O)/C=C/c2ccc(O)c(OC)c2)cc1OC)C(CCC(=O)OC)C3C (stereo not shown) [Compound 13, Chlorine e6-curcumin Conjugate (13)]", "unit-abbreviation": "%", "viability at 12.5 μM": 114}
{"compound": "C=Cc1c(C)c2cc3nc(c(CC(=O)OC)c4[nH]c(cc5nc(cc1[nH]2)C(C)=C5CC)c(C)c4C(=O)NCCCCCCNC(=O)CCCC(=O)Oc1ccc(/C=C/C(=O)CC(=O)/C=C/c2ccc(O)c(OC)c2)cc1OC)C(CCC(=O)OC)C3C (stereo not shown) [Compound 10, Chlorine e6-curcumin Conjugate (10)]", "unit-abbreviation": "%", "viability at 12.5 μM": 75.1}

====

Each entry below carries its reported viability at 25 μM.
- protocol-details: Dark cytotoxicity, MTT assay, AsPC-1
- Format: cell-based
- applied-conditions: human, AsPC-1 pancreatic cancer cells; 25 μM photosensitizer, 3 h, no light, 72 h incubation; read-out: Cell viability, Dark Cytotoxicity against AsPC-1
measurement-kind: viability at 25 μM (%)

{"molecule": "C=Cc1c(C)c2cc3nc(c(CC(=O)OC)c4[nH]c(cc5nc(cc1[nH]2)C(C)=C5CC)c(C)c4C(=O)NCCCOCCOCCOCCCNC(=O)CCCC(=O)Oc1ccc(/C=C/C(=O)CC(=O)/C=C/c2ccc(O)c(OC)c2)cc1OC)[C@@H](CCC(=O)OC)[C@@H]3C [Compound 16, Chlorine e6-curcumin Conjugate (16)]", "measurement-kind": "viability at 25 μM", "unit-abbreviation": "%", "readout-number": 80.4}
{"molecule": "C=Cc1c(C)c2cc3nc(c(CC(=O)O)c4[nH]c(cc5nc(cc1[nH]2)C(C)=C5CC)c(C)c4C(=O)O)[C@@H](CCC(=O)O)[C@@H]3C", "measurement-kind": "viability at 25 μM", "unit-abbreviation": "%", "readout-number": 99.6}
{"molecule": "C=Cc1c(C)c2cc3nc(c(CC(=O)OC)c4[nH]c(cc5nc(cc1[nH]2)C(C)=C5CC)c(C)c4C(=O)NCCOCCOCCNC(=O)CCCC(=O)Oc1ccc(/C=C/C(=O)CC(=O)/C=C/c2ccc(O)c(OC)c2)cc1OC)C(CCC(=O)OC)C3C (stereo not shown) [Compound 13, Chlorine e6-curcumin Conjugate (13)]", "measurement-kind": "viability at 25 μM", "unit-abbreviation": "%", "readout-number": 98.5}
{"molecule": "C=Cc1c(C)c2cc3nc(c(CC(=O)OC)c4[nH]c(cc5nc(cc1[nH]2)C(C)=C5CC)c(C)c4C(=O)NCCCCCCNC(=O)CCCC(=O)Oc1ccc(/C=C/C(=O)CC(=O)/C=C/c2ccc(O)c(OC)c2)cc1OC)C(CCC(=O)OC)C3C (stereo not shown) [Compound 10, Chlorine e6-curcumin Conjugate (10)]", "measurement-kind": "viability at 25 μM", "unit-abbreviation": "%", "readout-number": 95}

The origin of these recorded values is patent US20200172549A1.
